Measured pKd, listed per entry.
- target-or-system: T1, APBA1_2, Q02410
- T1 sequence (Q02410 742-832, limits assumed, looked up): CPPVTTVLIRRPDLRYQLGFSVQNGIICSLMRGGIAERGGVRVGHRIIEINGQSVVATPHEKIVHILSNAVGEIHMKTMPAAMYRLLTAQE
- measurement-notes: holdup assay
- Design: key: below the threshold = too weak to quantify, mostly under pKd 3.1 to 4
- experimental-conditions: plain residues with an end cap or a label only (N-terminal biotin on a linker: ttds)

binder	value
RPLPRKVSQL [DOCK4, Q8N1I0]	3.97
SGSRPSATVV [HPV73-E6, Q82005]	4.02

Could you now look at the following binder, please?
Request: Item PVRVCEETSL [OTULIN, Q96BN8] has what recorded pKd?
Response: 3.95
